Test system: NCI-H1944 (Lung Adenocarcinoma);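 further: after 72 h of two-drug dosing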
Experiment: Bliss excess, mean over the matrix (fraction); higher = more synergy
Threshold rule: Bliss excess greater than or equal to -0.002 is TRUE; below that, FALSE.

// below: answered compounds
CC(=O)c1c(C)c2cnc(Nc3ccc(N4CCNCC4)cn3)nc2n(C2CCCC2)c1=O [Palbociclib] + CN(CC[C@H](CSC1=CC=CC=C1)NC2=C(C=C(C=C2)S(=O)(=O)NC(=O)C3=CC=C(C=C3)N4CCC(CC4)[C@H](C5=CC=CC=C5C6=CC=C(C=C6)Cl)O)S(=O)(=O)C(F)(F)F)CCO [AZD4320] (first compound max 10 µM, 7x7, partner max 1 µM)    FALSE
COc1nnc2ccc(N3CCC(c4ccc(OCCN5CCN(C)C(=O)[C@H]5C)cc4)CC3)nn12 [AZD5153] + Cn1cnc2c(F)c(Nc3ccc(Br)cc3Cl)c(C(=O)NOCCO)cc21 [Selumetinib] (first compound max 1 µM, 7x7, partner max 10 µM)    TRUE
NC1(C(=O)N[C@@H](CCO)c2ccc(Cl)cc2)CCN(c2ncnc3[nH]ccc23)CC1 [Capivasertib] + Cn1cnc2c(F)c(Nc3ccc(Br)cc3Cl)c(C(=O)NOCCO)cc21 [Selumetinib] (first compound max 10 µM, 7x7, partner max 10 µM)    TRUE

Kindly determine if Bliss excess recorded for Cc1c2c(nn1C)CSCc1cc(n(C)n1)CSc1cc(c3ccccc3c1)OCCCc1c(C(=O)O)n(C)c3c-2c(Cl)ccc13 [AZD5991] + Cn1cnc2c(F)c(Nc3ccc(Br)cc3Cl)c(C(=O)NOCCO)cc21 [Selumetinib] (first compound max 1 µM, 7x7, partner max 3 µM) is above or exactly -0.002.
TRUE

CC(=O)c1c(C)c2cnc(Nc3ccc(N4CCNCC4)cn3)nc2n(C2CCCC2)c1=O [Palbociclib] + Cn1cnc2c(F)c(Nc3ccc(Br)cc3Cl)c(C(=O)NOCCO)cc21 [Selumetinib] (first compound max 10 µM, 7x7, partner max 10 µM) , same question.
FALSE

Would you mind doing COc1nnc2ccc(N3CCC(c4ccc(OCCN5CCN(C)C(=O)[C@H]5C)cc4)CC3)nn12 [AZD5153] + CCN(CCO)CCCOc1ccc2c(Nc3cc(CC(=O)Nc4cccc(F)c4)[nH]n3)ncnc2c1 [AZD2811] (first compound max 1 µM, 7x7, partner max 1 µM) as well?
FALSE

Where do the numbers come from? From the supplement of paper PMC11061612.
